Attribution: BindingDB's records for doi:10.1016/0960-894X(95)00091-7

assay protocol: Compound was tested for its ability inhibit forskolin-stimulated activity of adenylate cyclase coupled to human 5-hydroxytryptamine 1D receptor beta in CHO-K1 cells; value ranges from 0.24-0.55
endpoint: EC50 (nM)
Number in nM, nothing else.

Incoming: Tell me the measured EC50 of COc1cccc(N2CCN(C(=O)COc3ccc4[nH]cc(CCN)c4c3)CC2)c1 , please.
Outgoing: 0.24

----------
Recorded pIC50 values for a group of compounds are listed next.
assay protocol: Compound was tested for its affinity towards Alpha-2 adrenergic receptor
pIC50: −log10 of the molar value.

# record smiles, pIC50
records = [
    ("NCCc1c[nH]c2ccc(OCC(=O)N3CCN(c4cccc5ccccc45)CC3)cc12", "< 6.00"),
]

Please examine the following record next.
Incoming: Tell me the measured pIC50 of Cc1ccccc1N1CCN(C(=O)COc2ccc3[nH]cc(CCN)c3c2)CC1 , please.
Outgoing: < 5.00

----------
assay protocol: Compound was tested for its ability inhibit forskolin-stimulated activity of adenylate cyclase coupled to human 5-HT 1D-beta receptor in CHO-K1 cells
endpoint: EC50 (nM)
Number in nM, nothing else.

Incoming: Tell me the measured EC50 of CCCCCCCCCOc1ccc2[nH]cc(CCN)c2c1 , please.
Outgoing: 68

----------
assay protocol: Compound was tested for its ability inhibit forskolin-stimulated activity of adenylate cyclase coupled to human 5-hydroxytryptamine 1D receptor beta in CHO-K1 cells; value ranges from 0.24-0.55
endpoint: Ki (pM)
Number in pM, nothing else.

Incoming: Tell me the measured Ki of NCCc1c[nH]c2ccc(OCC(=O)N3CCN(c4cccc5ccccc45)CC3)cc12 , please.
Outgoing: 520

----------
assay protocol: Binding affinity towards cloned human 5-hydroxytryptamine 1D receptor beta was determined
endpoint: pKi
Worth noting: pKi values are minus log10 of concentrations stated in mol/L.

# record smiles, pKi
records = [
    ("NCCc1c[nH]c2ccc(OCC(=O)N3CCN(c4ccccc4)CC3)cc12", 9.22),
]

Incoming: Tell me the measured pKi of COc1cccc(N2CCN(C(=O)COc3ccc4[nH]cc(CCN)c4c3)CC2)c1 , please.
Outgoing: 9.40

----------
assay protocol: Compound was tested for its ability inhibit forskolin-stimulated activity of adenylate cyclase coupled to human 5-HT 1D-beta receptor in CHO-K1 cells
endpoint: EC50 (nM)
Number in nM, nothing else.

Incoming: Tell me the measured EC50 of NCCc1c[nH]c2ccc(OCC(=O)N3CCN(c4ccccc4)CC3)cc12 , please.
Outgoing: 0.45

----------
assay protocol: Compound was tested for its ability inhibit forskolin-stimulated activity of adenylate cyclase coupled to human 5-hydroxytryptamine 1D receptor beta in CHO-K1 cells; value ranges from 2.8-6.5
endpoint: EC50 (nM)
Number in nM, nothing else.

Incoming: Tell me the measured EC50 of NCCc1c[nH]c2ccc(OCC(=O)N3CCN(c4cccc5ccccc45)CC3)cc12 , please.
Outgoing: 2.8
